# Kd against Glycogen synthase kinase-3 alpha (Homo sapiens, UniProt P49840), merged from multiple literature sources
# Sequence (P49840 whole entry): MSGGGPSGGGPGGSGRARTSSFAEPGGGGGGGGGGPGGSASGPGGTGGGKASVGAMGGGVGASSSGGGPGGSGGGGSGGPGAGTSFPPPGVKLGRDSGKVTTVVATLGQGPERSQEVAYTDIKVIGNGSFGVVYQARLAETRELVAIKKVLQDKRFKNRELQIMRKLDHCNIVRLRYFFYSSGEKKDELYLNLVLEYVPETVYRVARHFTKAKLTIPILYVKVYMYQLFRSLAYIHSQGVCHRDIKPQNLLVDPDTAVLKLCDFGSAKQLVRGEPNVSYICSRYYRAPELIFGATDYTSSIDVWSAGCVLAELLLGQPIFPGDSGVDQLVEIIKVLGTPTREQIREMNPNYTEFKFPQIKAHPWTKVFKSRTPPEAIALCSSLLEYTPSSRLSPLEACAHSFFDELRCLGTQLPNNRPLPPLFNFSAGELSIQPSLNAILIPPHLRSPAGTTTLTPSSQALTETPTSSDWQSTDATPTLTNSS
Exam item: assign Y to entries whose Kd is below 70 nM and N to entries at or above 70 nM. Note that a value of exactly 70 nM receives N.

Would you please look over these solved cases?
>  <Compound>
Cn1cc(C2=C(c3cccc(NCC(O)CO)c3)C(=O)NC2=O)c2cc(F)ccc21 (racemic)

>  <Answer Label>
Y

$$$$
>  <Compound>
CS(=O)(=O)CCCOc1cccc2c1ccn2-c1ccnc(N[C@H]2CC[C@H](C(=O)N3CCC(O)CC3)CC2)n1

>  <Answer Label>
N

$$$$
>  <Compound>
Cc1n[nH]c2ccc(-c3nnc(C)n3Cc3ccc(C(F)(F)F)cc3)cc12

>  <Answer Label>
N

$$$$
>  <Compound>
Cc1n[nH]c2ccc(-c3nnc4n3[C@H](c3ccc(Cl)cc3)CC4)cc12

>  <Answer Label>
Y

$$$$

# ---- query compound ----
Exercise: Please let me know if Cc1n[nH]c2ccc(-c3nnc4n3[C@H](c3ccc(Cl)cc3)CC4)nc12 shows Kd below 70 nM.
Solution: N
